Tested on: apomorphine-induced vomiting
Assay: Effect on apomorphine-induced vomiting
Format: in vivo
Details: Canis lupus familiaris, po, 2 hours prior to apomorphine hydrochloride (0.1 mg/kg, s.c.); beagle dogs; vomiting checked for 2 hours
Overview of reported ED50 across a group of molecules:
value.kind: ED50 (mg/kg)

{"molecule": "Cl.Cl.O.O=C1NC2CCCCN2C12CCN(CCCN1c3ccccc3CCc3ccc(Cl)cc31)CC2 (stereo not shown)", "experimental.target": "apomorphine-induced vomiting", "value.kind": "ED50", "val": 0.5}
{"molecule": "Cl.Cl.O.O=C1NC2CCCCN2C12CCN(CCCN1c3ccccc3CCc3ccccc31)CC2 (stereo not shown)", "experimental.target": "apomorphine-induced vomiting", "value.kind": "ED50", "val": 2.5}
{"molecule": "CN(C)CCCN1c2ccccc2Sc2ccc(Cl)cc21 [Chlorpromazine, reference compound]", "experimental.target": "apomorphine-induced vomiting", "value.kind": "ED50", "val": 5.1}
{"molecule": "Cl.Cl.O.O=C1N=C2CCCCN2C12CCN(CCCN1c3ccccc3CCc3ccccc31)CC2", "experimental.target": "apomorphine-induced vomiting", "value.kind": "ED50", "val": 2}
